Tested on: OVCAR-5 ovarian
test protocol: NCI tumour cell line growth inhibition, 48 h
property name: TGI

Before answering, review these 2 worked examples.
[
  {
    "molecule": "O=c1[nH]c(=O)c2c([nH]1)[nH]c1ccc(Br)cc12",
    "value": "> 100 µM"
  },
  {
    "molecule": "CCOC(=O)C1=C(C)NC(=O)NC1c1ccc(OC)cc1OC (configuration not stated)",
    "value": "> 100 µM"
  }
]

## Input Give me measured TGI, please, for this molecule: Nc1cccc2c1-c1c(cccc1[N+](=O)[O-])C2=O
## Output > 100 µM

## Input Give me measured TGI, please, for this molecule: O=C(O)CCC(c1ccccc1)(c1ccccc1)c1ccccc1
## Output > 100 µM

## Input Give me measured TGI, please, for this molecule: CN(C)c1ccc(C=Nc2ccc(-c3nc4ccccc4s3)cc2)cc1
## Output > 100 µM

## Input Give me measured TGI, please, for this molecule: N#Cc1c2ccccc2c(Cc2ccc3c(c2)OCCOCCOCCOCCOCCO3)c2ccccc12
## Output 30.1 µM

## Input Give me measured TGI, please, for this molecule: C=C1c2nc3ccccc3n2C=C(c2cccc(Cl)c2)N1Cc1ccc(OC)cc1
## Output > 30.9 µM
